Tested on: AChE (acetylcholinesterase) (Electrophorus electricus, UniProt O42275)
Sequence (O42275 24-633): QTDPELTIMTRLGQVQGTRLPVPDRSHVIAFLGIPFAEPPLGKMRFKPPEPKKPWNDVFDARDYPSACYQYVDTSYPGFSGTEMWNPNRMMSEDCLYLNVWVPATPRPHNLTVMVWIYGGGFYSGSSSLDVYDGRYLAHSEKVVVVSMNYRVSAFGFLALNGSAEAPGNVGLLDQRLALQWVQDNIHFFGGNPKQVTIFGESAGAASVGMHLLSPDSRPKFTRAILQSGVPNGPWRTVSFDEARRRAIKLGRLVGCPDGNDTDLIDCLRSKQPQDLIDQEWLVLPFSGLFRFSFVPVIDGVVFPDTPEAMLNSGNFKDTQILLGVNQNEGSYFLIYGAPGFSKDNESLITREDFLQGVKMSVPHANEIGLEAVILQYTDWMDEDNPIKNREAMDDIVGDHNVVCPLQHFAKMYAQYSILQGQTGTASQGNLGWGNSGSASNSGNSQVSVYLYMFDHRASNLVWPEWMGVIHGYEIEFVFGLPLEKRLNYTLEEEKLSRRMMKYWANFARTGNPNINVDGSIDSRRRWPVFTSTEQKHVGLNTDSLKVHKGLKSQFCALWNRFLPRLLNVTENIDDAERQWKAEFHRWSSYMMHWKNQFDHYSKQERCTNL
For each of the molecules below, state its IC50.
Answer format: numeric, µM implied, no suffix.

Can you share its IC50? I mean this molecule: CC(=O)OC1C(C)CC(=O)N2CCCC3=C(CCC2)C1CC3=O (centres unmarked) [compound 1, lycosquarosine A]
170

Can you share its IC50? I mean this molecule: COc1ccc2cc3[n+](cc2c1OC)CCc1cc2c(cc1-3)OCO2 [Berberine, reference compound]
0.268
